system.name: E. coli PBP1a (Escherichia coli (strain K12), UniProt P02918)
Sequence (P02918 whole entry): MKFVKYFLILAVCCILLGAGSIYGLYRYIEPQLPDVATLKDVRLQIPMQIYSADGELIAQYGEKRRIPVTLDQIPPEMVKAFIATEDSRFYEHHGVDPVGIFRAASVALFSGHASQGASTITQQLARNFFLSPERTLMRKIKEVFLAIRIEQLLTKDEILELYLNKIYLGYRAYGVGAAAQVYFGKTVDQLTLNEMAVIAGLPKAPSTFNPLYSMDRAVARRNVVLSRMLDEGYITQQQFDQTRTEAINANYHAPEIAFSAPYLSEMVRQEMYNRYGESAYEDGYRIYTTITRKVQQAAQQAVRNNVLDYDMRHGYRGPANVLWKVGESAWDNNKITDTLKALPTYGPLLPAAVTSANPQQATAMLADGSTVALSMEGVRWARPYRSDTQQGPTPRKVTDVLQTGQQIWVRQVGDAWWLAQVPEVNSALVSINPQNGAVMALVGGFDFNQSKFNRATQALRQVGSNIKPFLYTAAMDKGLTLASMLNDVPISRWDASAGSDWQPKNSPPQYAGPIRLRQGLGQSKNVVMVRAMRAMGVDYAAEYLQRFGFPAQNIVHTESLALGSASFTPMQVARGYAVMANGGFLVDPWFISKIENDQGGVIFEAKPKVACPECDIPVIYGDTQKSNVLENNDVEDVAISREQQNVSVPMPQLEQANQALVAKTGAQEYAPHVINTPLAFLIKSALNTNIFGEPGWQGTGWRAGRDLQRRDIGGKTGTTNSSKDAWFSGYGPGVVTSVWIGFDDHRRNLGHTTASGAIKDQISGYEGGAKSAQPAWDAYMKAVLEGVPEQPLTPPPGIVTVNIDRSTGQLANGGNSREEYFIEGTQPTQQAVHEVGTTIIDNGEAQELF
method.summary: Radioligand competition binding assay with 14C-labeled boronic acid probe, PBP1a
condition.description: assay validation; Compound A 20 μM, PBP1a/PBP1b 0.1 μM; read-out: EC50 (inhibition of binding of Compound A) PBP1a
metric.name: EC50

Need EC50 of CC1(C)S[C@@H]2[C@H](NC(=O)[C@H](N)c3ccccc3)C(=O)N2[C@H]1C(=O)O [ampicillin, reference compound] , thanks.
< 500 nM

###

Tested on: E. coli AG100A
method.summary: microbe, parasite or virus in culture
Type: cell-based
condition.description: Escherichia coli, read-out: MIC E. coli AG100A
MIC values for the compounds below.

In the examples that follow, each entry is paired with its recorded MIC.
CCN1CCN(C(=O)NC(C(=O)N[C@H]2Cc3cccc(C(=O)O)c3OB2O)c2ncc(O)cc2Cl)C(=O)C1=O (some centres unmarked) : 2 to 4 µg/mL
CCN1CCN(C(=O)NC(C(=O)N[C@H]2Cc3cccc(C(=O)O)c3OB2O)c2ccc[n+](CC(=O)[O-])c2)C(=O)C1=O (some centres unmarked) : 32 to 64 µg/mL
CCN1CCN(C(=O)NC(C(=O)N[C@H]2Cc3ccc(F)c(C(=O)O)c3OB2O)c2ccc(O)cn2)C(=O)C1=O (some centres unmarked) : 2 to 4 µg/mL
CCN1CCN(C(=O)NC(C(=O)N[C@H]2Cc3ccc(F)c(C(=O)O)c3OB2O)c2cc(O)c(O)cc2F)C(=O)C1=O (some centres unmarked) : 2 to 4 µg/mL
CCN1C[C@H](CO)N(C(=O)NC(C(=O)N[C@H]2Cc3cccc(C(=O)O)c3OB2O)c2ncc(O)cc2F)C(=O)C1=O (some centres unmarked) : 8 to 16 µg/mL
CCN1CCN(C(=O)N[C@@H](C(=O)N[C@H]2Cc3cccc(C(=O)O)c3OB2O)c2ccc(S(N)(=O)=O)c(O)c2)C(=O)C1=O : 2 to 4 µg/mL
CCN1CCN(C(=O)N[C@@H](C)C(=O)N[C@H]2Cc3cccc(C(=O)O)c3OB2O)C(=O)C1=O : > 128 µg/mL
CCNC(=O)NC(C(=O)N[C@H]1Cc2cccc(C(=O)O)c2OB1O)c1csc(N)n1 (some centres unmarked) : 8 to 16 µg/mL
CCN1CCN(C(=O)NC(C(=O)N[C@H]2Cc3cccc(C(=O)O)c3OB2O)c2ccc(O)c(O)n2)C(=O)C1=O (some centres unmarked) : 2 to 4 µg/mL
CCN1CCN(C(=O)NC(C(=O)N[C@H]2Cc3ccc(Cl)c(C(=O)O)c3OB2O)c2ccc(O)c(O)c2Cl)C(=O)C1=O (some centres unmarked) : 2 to 4 µg/mL

Need MIC of CCN1CCN(C(=O)NC(C(=O)N[C@H]2Cc3cccc(C(=O)O)c3OB2O)c2ccc(O)cn2)C(=O)C1=O (some centres unmarked) , thanks.
2 to 4 µg/mL

Need MIC of CCN1CCN(C(=O)NC(C(=O)N[C@H]2Cc3cccc(C(=O)O)c3OB2O)c2ccc(C(N)=O)cc2)C(=O)C1=O (some centres unmarked) , thanks.
2 to 4 µg/mL

Need MIC of CCN1CCN(C(=O)N[C@H](C(=O)N[C@H]2Cc3ccc(F)c(C(=O)O)c3OB2O)c2ccc(O)c(O)c2Cl)C(=O)C1=O , thanks.
8 to 16 µg/mL

Need MIC of CCN1CCN(C(=O)NC(C(=O)N[C@H]2Cc3cc(F)cc(C(=O)O)c3OB2O)c2csc(N)n2)C(=O)C1=O (some centres unmarked) , thanks.
2 to 4 µg/mL

Need MIC of NS(=O)(=O)c1ccc(C(NC(=O)N2CCN(CCF)C(=O)C2=O)C(=O)N[C@H]2Cc3cccc(C(=O)O)c3OB2O)cc1F (some centres unmarked) , thanks.
2 to 4 µg/mL

Need MIC of CNCCN1CCN(C(=O)N[C@@H](C(=O)N[C@H]2Cc3ccc(F)c(C(=O)O)c3OB2O)c2ccc(O)c(O)c2Cl)C(=O)C1=O , thanks.
0.5 to 1 µg/mL

Need MIC of CCN1CCN(C(=O)NC(C(=O)N[C@H]2Cc3cccc(C(=O)O)c3OB2O)c2cc(O)c(O)cc2Cl)C(=O)C1=O (some centres unmarked) , thanks.
8 to 16 µg/mL

Need MIC of O=C(O)c1c(F)ccc2c1OB(O)[C@@H](NC(=O)C(NC(=O)N1CCN(CCF)C(=O)C1=O)c1ncc(O)cc1F)C2 (some centres unmarked) , thanks.
2 to 4 µg/mL

Need MIC of NCCN1CCN(C(=O)N[C@@H](C(=O)N[C@H]2Cc3cccc(C(=O)O)c3OB2O)c2ccc(O)c(O)c2Cl)C(=O)C1=O , thanks.
0.5 to 1 µg/mL

Need MIC of CCN1CCN(C(=O)NC(C(=O)N[C@H]2Cc3cccc(C(=O)O)c3OB2O)c2ncc(O)cn2)C(=O)C1=O (some centres unmarked) , thanks.
2 to 4 µg/mL

Need MIC of CC[C@H]1CN(CC)C(=O)C(=O)N1C(=O)NC(C(=O)N[C@H]1Cc2cccc(C(=O)O)c2OB1O)c1ncc(O)cc1F (some centres unmarked) , thanks.
2 to 4 µg/mL

Need MIC of CNCCN1CCN(C(=O)NC(C(=O)N[C@H]2Cc3cccc(C(=O)O)c3OB2O)c2ccc(O)c(O)c2Cl)C(=O)C1=O (some centres unmarked) , thanks.
2 to 4 µg/mL

Need MIC of CCN1CCN(C(=O)NC(C(=O)N[C@H]2Cc3cccc(C(=O)O)c3OB2O)c2ccc(C(=O)O)cc2)C(=O)C1=O (some centres unmarked) , thanks.
8 to 16 µg/mL

Need MIC of NS(=O)(=O)c1ccc([C@@H](NC(=O)N2CCN(CCBr)C(=O)C2=O)C(=O)N[C@H]2Cc3cccc(C(=O)O)c3OB2O)cc1O , thanks.
8 to 16 µg/mL

Need MIC of CC(=O)NCCN1CCN(C(=O)NC(C(=O)N[C@H]2Cc3ccc(F)c(C(=O)O)c3OB2O)c2ccc(O)c(O)c2Cl)C(=O)C1=O (some centres unmarked) , thanks.
0.5 to 1 µg/mL

Need MIC of CCN1CCN(C(=O)NC(C(=O)N[C@H]2Cc3cccc(C(=O)O)c3OB2O)c2ncc(O)cc2C)C(=O)C1=O (some centres unmarked) , thanks.
32 to 64 µg/mL

Source: patent US12173018B2
